# Protocol Text: qHTS assay to identify small molecule antagonists of the estrogen related receptor signaling pathway with the pleiotropic PPARgamma coactivator (PGC) from Tox21 10K library - cell viability counter screen (AID 1224840); also: nearly all actives have a fitted effect of over 40% in size
# Condition Label: PGC/ERR reporter cells viability, CellTiter-Fluor, 17.5 h; series mostly up to 92.4 µM
# Protocol: National Center for Advancing Translational Sciences [NCATS] NIH Chemical Genomics Center [NCGC] U.S. Environmental Protection Agency [EPA] National Institutes of Environmental Health Sciences [NIEHS] National Toxicology Program [NTP] […] The PGC/ERR cells were dispensed at 2,000 cells/5 ul/well in 1536-well white plates using a Multidrop dispenser. […] After 30-minute incubation at 37 C/5% CO2, the fluorescence intensity in the plates was measured using a ViewLux plate reader.
Records with an inconclusive call do not appear. The source made the active and inactive calls. Calls follow the shape of the dose curve; as a rule, active = well fitted cell-killing curve with a large enough effect in the repeat runs (not every such curve was filed as active); inconclusive = weak or mixed curves, or effect the other way; inactive = no such curve, though single readings can be large or run the other way.
Give one outcome, nothing more. List: 1 for active, -1 for inactive

• CCCCC(CC)C(=O)O (configuration not stated) = -1
• COc1ccc(C(Cl)=C(c2ccc(OC)cc2)c2ccc(OC)cc2)cc1 = -1
• CCCC[P+](CCCC)(CCCC)CCCC = -1
• CC(C)C(=O)Nc1ccc([N+](=O)[O-])c(C(F)(F)F)c1 = -1
• O=c1[nH]cnc2c1ncn2[C@H]1CC[C@@H](CO)O1 = -1
• Oc1ccccc1 = -1
• Cc1cn([C@H]2C=C[C@@H](CO)O2)c(=O)[nH]c1=O = -1
• O=C1O[C@H]([C@@H](O)CO)C(O)=C1O = -1

# lookup: test call for O=CC(=O)c1ccccc1
-1

# lookup: test call for C[C@](N)(Cc1ccc(O)c(O)c1)C(=O)O
-1

# lookup: test call for CCCCNC(=O)NS(=O)(=O)c1ccc(C)cc1
-1

# lookup: test call for COc1ccc2cc(S(=O)(=O)N[C@H](CC(=O)N[C@H](Cc3ccc(CN4[C@H](C)CCC[C@@H]4C)cc3)C(=O)N(C)C(C)C)c3ccc4c(c3)OCO4)ccc2c1
1

###

Please go through the items and note down their activity change, positive = activation.
# Protocol Text: qHTS assay to identify small molecule agonists of the estrogen related receptor (ERR) signaling pathway from Tox21 library (AID 1224849); also: % is scaled to controls: 0 for no effect and ±100 for the full control effect; nearly all actives have a fitted effect of over 15% in size
# Condition Label: ERR reporter cell line, ONE-Glo luciferase, 18 h; at 42.5 µM (top of the series)
Give bare numbers, in %.

Below, each entry is followed by its recorded activity change, positive = activation result.
* CN(C)CCOC(C)(c1ccccc1)c1ccccn1 (configuration not stated) | 0.337
* CCOc1ccc(NC(C)=O)cc1 | 9.79
* Cc1ncc([N+](=O)[O-])n1CCO | 4.15

Provide each entry's activity change, positive = activation from the list below.
1. Nc1c2c(nc3ccccc13)CCCC2
2. CC1(C)O[C@@H]2C[C@H]3[C@@H]4CCC5=CC(=O)C=C[C@]5(C)[C@@]4(F)[C@@H](O)C[C@]3(C)[C@]2(C(=O)CO)O1
3. CCCCCCCCCCCCCCCC[N+](C)(C)Cc1ccccc1
4. Cc1ncc([N+](=O)[O-])n1C
5. NS(=O)(=O)c1cc2c(cc1Cl)NCNS2(=O)=O

1. -6.1
2. -6.5
3. -56.4
4. 5.13
5. -0.0876

Provide each entry's activity change, positive = activation from the list below.
1. Cn1c(=O)c2c(ncn2C)n(C)c1=O
2. CS(=O)(=O)OCCCCOS(C)(=O)=O
3. CN[C@H]1CC[C@@H](c2ccc(Cl)c(Cl)c2)c2ccccc21
4. COc1ccc(C(Cl)=C(c2ccc(OC)cc2)c2ccc(OC)cc2)cc1

0.592
-0.0445
-39
-32.5

###

# Protocol Text: qHTS assay to test for compound auto fluorescence at 590 nm (red) in HEK293 cell free culture (AID 720683); also: % is scaled to controls: 0 for no effect and ±100 for the full control effect
# Condition Label: cell-free medium autofluorescence, Ex540/Em590 red; series mostly up to 91.3 µM
The source made the active and inactive calls. Calls follow the shape of the dose curve; as a rule, active = well fitted curve in the direction sought with a large enough effect in the repeat runs; inconclusive = weak or mixed curves; inactive = flat fitted curve, though single readings scatter.
Assay Endpoint: outcome

Below, each entry is followed by its recorded outcome result.
- CN1CCC[C@H]1c1cccnc1: inactive
- Cc1cn([C@H]2C=C[C@@H](CO)O2)c(=O)[nH]c1=O: inactive
- NC1CCCCC1: inactive
- O=C1NC(=O)C(c2ccccc2)(c2ccccc2)N1: inactive
- NC(=O)n1c(O)c(C(=O)c2cccs2)c2cc(Cl)ccc21: inactive

Provide each entry's outcome from the list below.
1. C1CCC(C(CC2CCCCN2)C2CCCCC2)CC1 (configuration not stated)
2. CCCCC(CC)C(=O)O (configuration not stated)

1. inactive
2. inactive

###

# Protocol Text: qHTS assay to identify small molecule antagonists of the thyroid receptor (TR) signaling pathway - cell viability counter screen (AID 743064); also: nearly all actives have a fitted effect of over 50% in size
# Condition Label: GH3.TRE-Luc viability, CellTiter-Fluor, 24 h; series mostly up to 70.3 µM
Inconclusive results are not listed. The source made the active and inactive calls. Calls come from the whole dose curve; as a rule, active = well fitted cell-killing curve with a large enough effect in the repeat runs; inconclusive = weak or mixed curves, or effect the other way; inactive = no such curve, though single readings can be large or run the other way.
Give one outcome, nothing more. List: 1.0 = active, 0.0 = inactive

# lookup: test call for O=C1NC(=O)C(c2ccccc2)(c2ccccc2)N1
0.0

# lookup: test call for Nc1ccc(O)c([N+](=O)[O-])c1
1.0

# lookup: test call for C=CCc1ccc(O)c(OC)c1
0.0

# lookup: test call for OC[C@H]1O[C@H](O[C@]2(CCl)O[C@H](CCl)[C@@H](O)[C@@H]2O)[C@H](O)[C@@H](O)[C@H]1Cl
0.0

# lookup: test call for CCCc1cc(=O)[nH]c(=S)[nH]1
0.0

# lookup: test call for CN(C)C(=O)Nc1ccc(Cl)c(Cl)c1
0.0

###

# Protocol Text: qHTS assay to identify small molecule antagonists of the sonic hedgehog signaling (Shh) pathway - cell viability counter screen (AID 1259367); also: % is scaled to controls: 0 for no effect and ±100 for the full control effect; nearly all actives have a fitted effect of over 55% in size
# Condition Label: NIH/3T3 Gli1-Luc viability, CellTiter-Fluor, 24 h; series mostly up to 92.4 µM
Inconclusive results are not listed. Calls of active or inactive are those of the source. Calls come from the whole dose curve; as a rule, active = well fitted cell-killing curve with a large enough effect in the repeat runs; inconclusive = weak or mixed curves, or effect the other way; inactive = no such curve, though single readings can be large or run the other way.
Assay Endpoint: outcome

Below, each entry is followed by its recorded outcome result.
* CC(C)C(=O)Nc1ccc([N+](=O)[O-])c(C(F)(F)F)c1 | inactive
* COc1ccc2c(c1)c(CC(=O)O)c(C)n2C(=O)c1ccc(Cl)cc1 | inactive
* CC1(C)S[C@@H]2[C@H](NC(=O)[C@H](N)c3ccccc3)C(=O)N2[C@H]1C(=O)O | inactive
* CC(=O)C(=O)O | inactive
* CC(=O)Nc1c(I)c(NC(C)=O)c(I)c(C(=O)O)c1I | inactive

Provide each entry's outcome from the list below.
1. CNNCc1ccc(C(=O)NC(C)C)cc1
2. CCCCCCCC(=O)OCC(COC(=O)CCCCCCC)OC(=O)CCCCCCC
3. CCCCC(CC)C(=O)O (stereo not drawn)

["inactive", "inactive", "inactive"]

###

# Protocol Text: qHTS assay to identify small molecule antagonists of the peroxisome proliferator-activated receptor gamma (PPARg) signaling pathway - cell viability counter screen (AID 743194); also: % is scaled to controls: 0 for no effect and ±100 for the full control effect; nearly all actives have a fitted effect of over 55% in size
# Condition Label: PPARg-bla HEK293H viability, CellTiter-Glo luminescence, 17 h, co-treated with 50 nM rosiglitazone; series mostly up to 62.6 µM
Inconclusive results are not listed. The source made the active and inactive calls. Calls follow the shape of the dose curve; as a rule, active = well fitted cell-killing curve with a large enough effect in the repeat runs; inconclusive = weak or mixed curves, or effect the other way; inactive = no such curve, though single readings can be large or run the other way.
Give one outcome, nothing more. List: active, inactive

Some entries whose results are on file:
* Nc1ccc(S(N)(=O)=O)cc1 | inactive
* CC(C)C(=O)Nc1ccc([N+](=O)[O-])c(C(F)(F)F)c1 | inactive
* CS(=O)(=O)OCCCCOS(C)(=O)=O | inactive

# lookup: test call for NC(CO)(CO)CO
inactive

# lookup: test call for CN(C)C(=O)Nc1ccc(Cl)c(Cl)c1
inactive

###

# Protocol Text: qHTS assay to identify small molecule agonists of the hypoxia (HIF-1) signaling pathway - cell viability counter screen (AID 1224844); also: % is scaled to controls: 0 for no effect and ±100 for the full control effect; nearly all actives have a fitted effect of over 50% in size
# Condition Label: HRE-bla ME-180 viability, CellTiter-Glo luminescence, 17 h; series mostly up to 76.8 µM
Records with an inconclusive call do not appear. Activity calls are given as the source filed them. The call rests on the fitted dose curve.
Give one outcome, nothing more. List: Yes for active, No for inactive

# lookup: test call for CCCCCCc1ccc(O)cc1O
No

# lookup: test call for O=S1(=O)OC(c2ccc(O)cc2)(c2ccc(O)cc2)c2ccccc21
No

###

# Protocol Text: qHTS assay for small molecule agonists of the p53 signaling pathway - cell viability (AID 651633); also: nearly all actives have a fitted effect of over 30% in size; also: potency is read from the fitted curve at half-maximal effect
# Condition Label: p53RE-bla HCT-116 viability, ATP luminescence, 16 h; series mostly up to 83.3 µM
Results filed as inconclusive are left out. Calls of active or inactive are those of the source. Calls come from the whole dose curve.
Assay Endpoint: Potency

Below, each entry is followed by its recorded Potency result.
• O=C(O)c1ccccc1 = inactive
• Cc1cccc(C)c1 = inactive
• CS(=O)(=O)OCCCCOS(C)(=O)=O = inactive
• CN(C)C(=O)Nc1ccc(Cl)c(Cl)c1 = inactive
• CN(C)CCOC(C)(c1ccccc1)c1ccccn1 (configuration not stated) = inactive

Provide each entry's Potency from the list below.
1. Cc1ncc([N+](=O)[O-])n1CCO
2. CCCCOC(=O)c1ccc(O)cc1
3. C1=CC2C3C=CC(C3)C2C1 (configuration not stated)
4. CCN(CC)C(=O)c1cccc(C)c1
5. Cc1cn([C@H]2C=C[C@@H](CO)O2)c(=O)[nH]c1=O
6. Nc1ccc(O)c([N+](=O)[O-])c1
7. Cn1c(=O)c2c(ncn2C)n(C)c1=O
8. CCCCNC(=O)NS(=O)(=O)c1ccc(C)cc1

inactive
inactive
inactive
inactive
inactive
inactive
inactive
inactive

Provide each entry's Potency from the list below.
1. CCCCC1(COC(=O)CCC(=O)O)C(=O)N(c2ccccc2)N(c2ccccc2)C1=O
2. CCOC(N)=O
3. CN[C@H]1CC[C@@H](c2ccc(Cl)c(Cl)c2)c2ccccc21
4. Cc1ncc([N+](=O)[O-])n1C

1: inactive; 2: inactive; 3: 29.8 µM (active); 4: inactive
